Test system: MCF7
Test: Cytotoxicity against human MCF7 cells assessed as cell viability measured after 48 hrs by MTT assay
Type: functional, cell-based
Conditions: MCF7, 48 h
PROPERTY NAME: EC50

COc1ccc(OCCN2CCC(C)CC2)cc1 = > 100 µM

Please examine the following record next.
API: value(readout= EC50, system= MCF7, query= `CC1CCN(CCOc2ccc(Cl)cc2)CC1` )
> 100 µM

---

Target: Sigma intracellular receptor 2 (Rattus norvegicus)
Sequence (Q5U3Y7 whole entry): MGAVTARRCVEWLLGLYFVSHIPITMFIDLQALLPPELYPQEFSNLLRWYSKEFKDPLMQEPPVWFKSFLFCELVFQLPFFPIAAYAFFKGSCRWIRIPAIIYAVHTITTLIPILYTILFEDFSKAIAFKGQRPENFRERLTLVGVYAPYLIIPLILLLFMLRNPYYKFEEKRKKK
Experiment: Displacement of [3H]DTG from sigma 2 receptor in Wistar Han rat liver membranes measured after 120 mins by scintillation counting method
PROPERTY NAME: pKi
Friendly reminder that pKi comes from taking -log10 of the concentration in mol/L.

Before answering, review these 5 worked examples.
C[C@H]1CCCCN1CCOc1ccc(Cl)cc1 = 7.16
COc1ccc(OCCCN2[C@H](C)CCC[C@@H]2C)cc1 = 7.28
CC1(C)CCCC(C)(C)N1CCOc1ccc(Cl)cc1 = 6.39
COc1ccc(OCCN2CCCC[C@@H]2C)cc1 = 6.76
COc1ccc(OC[C@H](C)N2CCC(C)CC2)cc1 = 6.14

I am curious: what pKi value has been reported for `COc1ccc(OCCN2CCC(C)CC2)cc1` ?
6.77

Next record, please: `COc1ccc(OCCN2C(C)(C)CCCC2(C)C)cc1`
6.09

---

# pKi values compiled below
Molecular target: Sigma intracellular receptor 2 (Rattus norvegicus)
Test: Displacement of [3H]DTG from sigma 2 receptor in Wistar Han rat liver membranes measured after 120 mins by scintillation counting method
Formally, pKi is defined as -log10 of the concentration c, with c in mol/L.

// worked examples, pKi included
COc1ccc(OCCN2[C@H](C)CCC[C@@H]2C)cc1 = 6.20
CC1CCN([C@H](C)COc2ccc(Cl)cc2)CC1 = 7.28
C[C@@H]1CCC[C@H](C)N1CCCOc1ccc(Cl)cc1 = 7.76
CC1CCN([C@@H](C)COc2ccc(Cl)cc2)CC1 = 6.73
C[C@@H]1CCC[C@H](C)N1CCOc1ccc(Cl)cc1 = 6.94
COc1ccc(OCCN2CCCC[C@H]2C)cc1 = 6.52

Fill blank: measured pKi of the compound `CC1CCN(CCOc2ccc(Cl)cc2)CC1` is ____.
6.62

Try this compound next: `COc1ccc(OC[C@@H](C)N2CCC(C)CC2)cc1`
6.73

Now this one: `C[C@@H]1CCCCN1CCOc1ccc(Cl)cc1`
7.11
